Data provenance is patent US11109593B2.

Listed below: herbicidal effect (herbicidal rate), Amaranthus viridis values for each entry.
Tested on: Amaranthus viridis
Assay: Test Example 4: herbicidal effect test by treatment of leave and stem in dry field farming (seven days after seeding)
Assay type: in vivo
Conditions: 120 g/10a active ingredient; emulsion sprayed seven days after seeding; evaluated 14 days after treatment
Description: This test was conducted in a double system per one agent solution concentration area, and the herbicidal rates (%) were determined by the following equation (Math. 1) on 14 days after the treatment with the agents. […] Pots with a size of 36 cm^2 were filled with a dry field farming soil (alluvium). […] The herbicidal effects were evaluated by the same standard as that in Test Example 1 on 14 days after the treatment with the agents. […]
Reply numerically in %, unit not repeated.

Check out these entries, answers already filled in.
MOLECULE: CCCC(C)n1oc(=O)c(Cc2ccccc2NS(=O)(=O)C(F)(F)F)c1C (stereo not shown)
UNIT_LABEL: %
EXPERIMENTAL_VALUE: 70
//
MOLECULE: CCC(C)n1oc(=O)c(Cc2ccccc2N(C(=O)Cc2ccccc2)S(=O)(=O)C(F)(F)F)c1C (stereo not shown)
UNIT_LABEL: %
EXPERIMENTAL_VALUE: 40
//
MOLECULE: COCCOC(=O)N(c1ccccc1Cc1c(C)n(C(C)c2ccccc2)oc1=O)S(=O)(=O)C(F)(F)F (stereo not shown)
UNIT_LABEL: %
EXPERIMENTAL_VALUE: 40
//
MOLECULE: C=CCOC(=O)N(c1ccccc1Cc1c(C)n(C(C)COC)oc1=O)S(=O)(=O)C(F)(F)F (stereo not shown)
UNIT_LABEL: %
EXPERIMENTAL_VALUE: 40
//
MOLECULE: CCC(C)Cn1oc(=O)c(Cc2ccccc2N(C(C)=O)S(=O)(=O)C(F)(F)F)c1C (stereo not shown)
UNIT_LABEL: %
EXPERIMENTAL_VALUE: 70

// herbicidal effect (herbicidal rate), Amaranthus viridis value for `Cc1c(Cc2ccccc2N(C(=O)C2CCCCC2)S(=O)(=O)C(F)(F)F)c(=O)on1C(C)(C)C` : 40

# molecule CCC(C)n1oc(=O)c(Cc2ccccc2N(C(=O)OCCOC)S(=O)(=O)C(F)(F)F)c1C (stereo not shown) ; its herbicidal effect (herbicidal rate), Amaranthus viridis = 40

For reference, reported herbicidal effect (herbicidal rate), Amaranthus viridis for Cc1c(Cc2ccccc2N(S(=O)(=O)C(F)(F)F)S(=O)(=O)C(F)(F)F)c(=O)on1CC[S+](C)[O-] (stereo not shown) stands at 40

Measured herbicidal effect (herbicidal rate), Amaranthus viridis of `Cc1c(Cc2ccccc2N(C(=O)c2ccccc2)S(=O)(=O)C(F)(F)F)c(=O)on1C(C)(C)C` : 40

Lab note: `Cc1c(Cc2ccccc2NS(=O)(=O)C(F)(F)F)c(=O)on1CC1CCCCC1` gave herbicidal effect (herbicidal rate), Amaranthus viridis of 50

---

System: Echinochloa crus-galli
Assay: Test Example 2: herbicidal effect test by treatment during growing period in paddy rice cultivation (seven days after seeding)
Type: in vivo
Conditions: 120 g/10a active ingredient, assessed 14 days after treatment, dry weight vs untreated area
ATTRIBUTE_MEASURED: Herbicidal rate (%) Echinochloa crus-galli
Report field: quantity (unit follows the number).

COMPOUND: CC(C)n1oc(=O)c(Cc2ccccc2NS(=O)(=O)C(F)(F)F)c1C1CC1 [Compound 1-83]
EXPERIMENTAL_VALUE: 40%

COMPOUND: CCC(C)n1oc(=O)c(Cc2ccccc2N(C(=O)OC(C)C)S(=O)(=O)C(F)(F)F)c1C (stereo not drawn) [Compound 1-642]
EXPERIMENTAL_VALUE: 90%

COMPOUND: Cc1c(Cc2ccccc2N(S(=O)(=O)C(F)(F)F)S(=O)(=O)C(F)(F)F)c(=O)on1C1CCCc2ccccc21 (stereo not drawn) [Compound 1-1050]
EXPERIMENTAL_VALUE: 90%

COMPOUND: Cc1c(Cc2ccccc2N(C(=O)OC(C)C)S(=O)(=O)C(F)(F)F)c(=O)on1C(C)(C)C [Compound 1-641]
EXPERIMENTAL_VALUE: 90%

COMPOUND: Cc1c(Cc2ccccc2N(C(=O)OCc2ccccc2)S(=O)(=O)C(F)(F)F)c(=O)on1C(C)(C)C [Compound 1-781]
EXPERIMENTAL_VALUE: 90%

response.value for Cc1c(Cc2ccccc2NS(=O)(=O)C(F)(F)F)c(=O)on1Cc1cccc(C(F)(F)F)c1 [Compound 1-193] (field: Herbicidal rate (%) Echinochloa crus-galli) = 60%

The measured Herbicidal rate (%) Echinochloa crus-galli associated with COCC(C)n1oc(=O)c(Cc2ccccc2N(S(C)(=O)=O)S(=O)(=O)C(F)(F)F)c1C (stereo not drawn) [Compound 1-899] reads 90%

Notebook: CCC(C)CCn1oc(=O)c(Cc2ccccc2NS(=O)(=O)C(F)(F)F)c1C (stereo not drawn) [Compound 1-124] , Herbicidal rate (%) Echinochloa crus-galli read as 90%
